# Tested on: Aspergillus niger
# PROCEDURE_DETAILS: Antifungal activity against Aspergillus niger by twofold dilution method
# Type: functional
# RECORDED_CONDITIONS: Aspergillus niger; read-out: MIC
Recorded MIC by entry
# value in µg/mL; strip the unit string

Request: For Clc1ccc(C2CC(=NOCc3ccccc3)CC(c3ccc(Cl)cc3)N2)cc1 (centres undefined) , what is its reported MIC?
Result: 50

Request: What do you get for Cc1ccc([C@@H]2CC(=NOCc3ccccc3)C[C@@H](c3ccc(C)cc3)S2)cc1 (relative stereo) ?
Result: 100

Request: What do you get for COc1ccc(C2C/C(=N\OCc3ccccc3)C(C)C(c3ccc(OC)cc3)N2)cc1 (centres undefined) ?
Result: 50

Request: What do you get for CC1C(=NOCc2ccccc2)C(C)C(c2ccc(Cl)cc2)OC1c1ccc(Cl)cc1 (stereo in doubt; 7c1) ?
Result: 100

Request: What do you get for Cc1ccc(C2NC(c3ccc(C)cc3)C(C)C(=NOCc3ccccc3)C2C)cc1 (centres undefined) ?
Result: 50

Request: What do you get for Cc1ccc(C2CC(=NOCc3ccccc3)CC(c3ccc(C)cc3)N2)cc1 (centres undefined) ?
Result: 200

Request: What do you get for CC(C)C1/C(=N/OCc2ccccc2)CC(c2ccccc2)NC1c1ccccc1 (centres undefined) ?
Result: 200
